- EXPERIMENTAL_TARGET: GDP-bound KRAS protein (aa 1-169), containing both G12D and C118A amino acid substitutions (Homo sapiens, UniProt P01116, C118A/G12D)
- Sequence (P01116 1-169 isoform P01116-2 G12D/C118A): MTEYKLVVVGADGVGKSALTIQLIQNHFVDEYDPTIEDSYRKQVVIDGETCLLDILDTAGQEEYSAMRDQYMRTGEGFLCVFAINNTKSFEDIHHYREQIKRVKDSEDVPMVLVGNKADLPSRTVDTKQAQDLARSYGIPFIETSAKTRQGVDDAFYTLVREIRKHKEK
- ASSAY_NAME: KRAS G12D Coupled Nucleotide Exchange Assay
- Format: biochemical
- REPORTED_CONDITIONS: 2 h compound pre-incubation
Avg 2 h Coupled Exchange IC50 of 8 nM or higher: Satisfied. Under 8 nM: Not satisfied.

Record excerpt, results attached:
{"columns": ["MOLECULE", "CATEGORY"],
 "data": [
  ["Oc1cc(-c2ccc3c(N4C[C@H]5CC[C@@H](C4)N5)nc(OC[C@@]45CCCN4C[C@H](F)C5)nc3c2F)c2c(F)cccc2c1", "Not satisfied"],
  ["CCc1c(F)ccc2cc(O)cc(-c3ccc4c(N5[C@@H]6CNC[C@H]5COC6)nc(OC[C@@]56CCCN5C[C@H](F)C6)nc4c3F)c12", "Not satisfied"],
  ["Cc1c(Cl)cc2[nH]ncc2c1-c1c(F)cc2c(N3C[C@H]4CC[C@@H](C3)N4)nc(OC[C@@]34CCCN3C[C@H](F)C4)nc2c1F", "Not satisfied"],
  ["CCc1cccc2cc(O)cc(-c3c(Cl)cc4c(N5C[C@H]6CC[C@@H](C5)N6)nc(OC[C@@]56CCCN5C[C@H](F)C6)nc4c3F)c12", "Not satisfied"],
  ["Cc1c(-c2cc(O)cc3ccccc23)ccc2c(N3[C@@H]4CC[C@H]3CNC4)nc(OC[C@@]34CCCN3C[C@H](F)C4)nc12", "Satisfied"]
]}

Assess whether reported Avg 2 h Coupled Exchange IC50 for CCc1c(F)ccc2cc(O)cc(-c3c(F)cc4c(N5CC6CCC(C5)N6)nc(OCC56CCCN5C[C@H](F)C6)nc4c3F)c12 (atropisomer, axis not shown; (M)) sits at 8 nM or higher.
Not satisfied

hey, is Avg 2 h Coupled Exchange IC50 for this one >= 8 nM? "C#Cc1c(F)ccc2cc(O)cc(-c3ccc4c(N5C[C@H]6CC[C@@H](C5)N6)nc(OC[C@@]56CCCN5C[C@H](F)C6)nc4c3F)c12"
Not satisfied

Reported Avg 2 h Coupled Exchange IC50 at or above 8 nM? "Cc1cc2[nH]ncc2c(-c2ccc3c(N4[C@@H]5CC[C@H]4CNC5)nc(OC[C@@]45CCCN4C[C@H](F)C5)nc3c2)c1Cl"
Satisfied

Assess whether reported Avg 2 h Coupled Exchange IC50 for "Nc1ccc(C2CC2)c(-c2c(F)cc3c(N4C[C@@H]5CC[C@H]4CN5)nc(OC[C@@]45CCCN4C[C@H](F)C5)nc3c2F)c1" sits at 8 nM or higher.
Satisfied

Tell me whether Avg 2 h Coupled Exchange IC50 is at least 8 nM here: "Cc1c(Cl)cc2[nH]ncc2c1-c1c(Cl)cc2c(N3C[C@H]4CC[C@@H](C3)N4)nc(OC[C@@]34CCCN3C[C@H](F)C4)nc2c1F"
Satisfied

Is the recorded value of Avg 2 h Coupled Exchange IC50 equal to or greater than 8 nM for this molecule? "CCc1c(F)ccc2cc(O)cc(-c3ccc4c(N5C[C@H]6CC[C@@H](C5)N6)nc(OC[C@@]56CCCN5C[C@H](F)C6)nc4c3C)c12"
Satisfied

Does the reported Avg 2 h Coupled Exchange IC50 for "Cc1ccc2[nH]nc(N)c2c1-c1ccc2c(N3C[C@H]4CC[C@@H](C3)N4)nc(OC[C@@]34CCCN3C[C@H](F)C4)nc2c1F" fall at or above the 8 nM mark?
Not satisfied

API: above_or_equal(metric=Avg 2 h Coupled Exchange IC50, cutoff=8 nM) for item "Cc1c(Cl)cc2[nH]ncc2c1-c1ccc2c(N3C[C@H]4CC[C@@H](C3)N4)nc(OC[C@@]34CCCN3C[C@H](F)C4)nc2c1"
Not satisfied

State whether the measured Avg 2 h Coupled Exchange IC50 reaches 8 nM, counting equality as reaching it, for "CCc1c(F)ccc2cc(O)cc(-c3c(F)cc4c(N5C[C@H]6CC[C@@H](C5)N6)nc(OC[C@@H]5CCC(=O)N5)nc4c3F)c12"
Not satisfied

---

- EXPERIMENTAL_TARGET: GDP-bound KRAS protein (aa 1-169), containing both G12D and C118A amino acid substitutions (Homo sapiens, UniProt P01116, C118A/G12D)
- ASSAY_NAME: KRAS G12D Coupled Nucleotide Exchange Assay
- Type: biochemical
- REPORTED_CONDITIONS: 2 h compound pre-incubation
ASSAY_READOUT: Avg 2 h Coupled Exchange IC50

Quick one: Avg 2 h Coupled Exchange IC50 for "C#Cc1cccc2cc(O)cc(-c3ccc4c(N5C[C@H]6CC[C@@H](C5)N6)nc(OC[C@@]56CCCN5C[C@H](F)C6)nc4c3C)c12" ?
4 nM

# input compound: "CCc1c(F)ccc2cc(O)cc(-c3ccc4c(N5[C@@H]6CC[C@H]5CNC6)nc(OC[C@@]56CCCN5C[C@H](F)C6)nc4c3F)c12" ; wanted: its Avg 2 h Coupled Exchange IC50
3 nM

What value of Avg 2 h Coupled Exchange IC50 has been reported for the following compound? "Fc1c(-c2cccc3cccc(Cl)c23)ccc2c(N3C[C@H]4CC[C@@H](C3)N4)nc(OC[C@@]34CCCN3C[C@H](F)C4)nc12"
7 nM

---

- EXPERIMENTAL_TARGET: GDP-bound KRAS protein (aa 1-169), containing both G12D and C118A amino acid substitutions (Homo sapiens, UniProt P01116, C118A/G12D)
- ASSAY_NAME: KRAS G12D Coupled Nucleotide Exchange Assay
- Type: biochemical
- REPORTED_CONDITIONS: 2 h compound pre-incubation
Rule: Avg 2 h Coupled Exchange IC50 below 4 nM gives True, anything at or above gives False.

Reference set (8 entries):
{"columns": ["SMILES_STR", "CATEGORY"],
 "data": [
  ["Cc1cccc2cccc(-c3c(F)cc4c(N5[C@@H]6CC[C@H]5CNC6)nc(OC[C@@]56CCCN5C[C@H](F)C6)nc4c3F)c12", "False"],
  ["CCc1c(F)ccc2cc(O)cc(-c3c(F)cc4c(N5C[C@H]6CC[C@@H](C5)N6)nc(OC[C@H]5CCC(=O)N5)nc4c3F)c12", "True"],
  ["CCc1cccc2cc(O)cc(-c3ccc4c(N5[C@@H]6CC[C@H]5CNC6)nc(OC[C@@]56CCCN5C[C@H](F)C6)nc4c3C)c12", "False"],
  ["CCc1c(F)ccc2cc(O)cc(-c3ccc4c(N5C[C@H]6CC[C@@H](C5)N6)nc(OCCC(C)(C)O)nc4c3F)c12", "False"],
  ["Oc1cc(-c2ccc3c(N4C[C@H]5CC[C@@H](C4)N5)nc(OC[C@@]45CCCN4C[C@H](F)C5)nc3c2)c2ccccc2c1", "True"],
  ["CCc1c(F)ccc2cc(O)cc(-c3c(F)cc4c(N5[C@@H]6CCC[C@H]5CNC6)nc(OC[C@@]56CCCN5C[C@H](F)C6)nc4c3F)c12", "False"],
  ["Oc1cc(-c2ccc3c(N4[C@@H]5CC[C@H]4CNC5)nc(OC[C@]45CCCN4C[C@H](F)C5)nc3c2F)c2ccccc2c1", "False"],
  ["Cc1ccc2[nH]nc(C)c2c1-c1ccc2c(N3C[C@H]4CC[C@@H](C3)N4)nc(OC[C@@]34CCCN3C[C@H](F)C4)nc2c1F", "False"]
]}

Problem: For the compound "Nc1cc2ccccc2c(-c2ccc3c(N4CC5CCC(C4)N5)nc(OC[C@@]45CCCN4C[C@H](F)C5)nc3c2F)n1" , is Avg 2 h Coupled Exchange IC50 under 4 nM?
False

Hello, is Avg 2 h Coupled Exchange IC50 of the following compound strictly smaller than 4 nM? "Oc1cc(-c2cc3nc(OC[C@@]45CCCN4C[C@H](F)C5)nc(N4[C@@H]5CC[C@H]4CNC5)c3cc2F)c2ccccc2c1"
True

---

- EXPERIMENTAL_TARGET: His-tagged KRAS G12D protein (Homo sapiens, UniProt P01116, G12D)
- Sequence (P01116 1-188 isoform P01116-2 G12D): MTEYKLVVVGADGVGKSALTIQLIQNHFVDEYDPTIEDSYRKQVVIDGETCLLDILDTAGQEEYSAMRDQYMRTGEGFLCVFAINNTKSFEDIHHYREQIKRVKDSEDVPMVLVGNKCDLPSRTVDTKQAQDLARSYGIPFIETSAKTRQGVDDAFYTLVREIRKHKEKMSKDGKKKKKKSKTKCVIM
- ASSAY_NAME: KRAS G12D TR-FRET Assay
- Protocol: Compounds of interest were prepared in a dose-response titration in DMSO, and 80 nL were added via Labcyte Echo to each well of a 384-well plate (Perkin Elmer 6008280). […] The plate was incubated for 30 minutes at room temperature. […] Plates were read using PerkinElmer EnVision (ex: 320 nm, em1: 665 nm, em2: 615 nm) and em1/em2 data was used to generate curve fits using a 4-parameter logistic model to calculate IC50 values.
ASSAY_READOUT: IC50 (nM)
Write the answer as a number in nM, unit excluded.

Below, each entry is followed by its recorded IC50 result.
{"columns": ["SMILES_STR", "UNIT_ANNOTATION", "VALUE_OBSERVED"],
 "data": [
  ["Cc1c(-c2cc(O)cc3cccc(Cl)c23)ccc2c(N3C[C@@H]4CC[C@H]3CN4)nc(OC[C@@]34CCCN3C[C@H](F)C4)nc12", "nM", 7],
  ["CCc1c(F)ccc2cc(O)cc(-c3c(F)cc4c(N5C[C@H]6CC[C@@H](C5)N6)nc(OC[C@@H]5CCC(=O)N5)nc4c3F)c12", "nM", 6],
  ["Nc1ccc(C2CC2)c(-c2c(F)cc3c(N4C[C@@H]5CC[C@H]4CN5)nc(OC[C@@]45CCCN4C[C@H](F)C5)nc3c2F)c1", "nM", 32],
  ["CCc1cccc2cc(O)cc(-c3c(Cl)cc4c(N5C[C@H]6CC[C@@H](C5)N6)nc(OC[C@@]56CCCN5C[C@H](F)C6)nc4c3F)c12", "nM", 3],
  ["CCc1c(F)ccc2cc(O)cc(-c3c(Cl)cc4c(N5C[C@H]6CC[C@@H](C5)N6)nc(OC[C@@]56CCCN5C[C@H](F)C6)nc4c3F)c12", "nM", 4]
]}

For the compound shown here, "Oc1cc(-c2ccc3c(N4C[C@@H]5CC[C@H]4CN5)nc(OC[C@@]45CCCN4C[C@H](F)C5)nc3c2F)c2c(F)c(F)ccc2c1" , give the reported IC50.
2
